This listing pairs compounds with measured GI50.
- System: HT-29
- protocol: NCI tumour cell line growth inhibition, 48 h
Active and inactive are the calls of the source. No stated cut-off is given here; in the data, active = GI50 up to about 1.1 µM and inactive = higher.
readout type: GI50

compound: COc1ccc2c(c1)[n+]([O-])c(C(C)=O)c(C)[n+]2[O-]
observed: > 100 µM (inactive)
//
compound: Cc1ccccc1NC(=O)CSc1nnc(Cc2ccccc2)o1
observed: > 100 µM (inactive)
//
compound: CCN(CC)CCn1nc2c3c(c(NCCN)ccc31)Sc1cc(O)ccc1-2
observed: 0.507 µM (active)
//
compound: CC1(C)OC2OC(COC(=O)C(c3ccccc3)c3ccccc3)C3OC(C)(C)OC3C2O1 (centres undefined)
observed: 8.79 µM (inactive)
//
compound: Cc1cc(N(CCC#N)CCC#N)ccc1/C=C1\N=C(c2cc([N+](=O)[O-])ccc2Cl)N(NC(=O)c2ccc(/N=C\c3ccc(N(CCC#N)S(C)(=O)=O)cc3C)cc2)C1=O
observed: 54.5 µM (inactive)
//
compound: CCO[C@]12C[C@H](OC)[C@@]3(O)CC(C1[C@H]3OCc1ccccc1)C13C4C2[C@H](OC)C1[C@](COC)(CN4CC)[C@H](O)C[C@@H]3OC (some centres undefined)
observed: > 100 µM (inactive)
//
compound: N#C/C(=C\c1ccc2ccccc2c1)c1ccccc1
observed: 26.7 µM (inactive)
//
compound: Oc1cccc(-c2nc3ccccc3s2)c1
observed: 18.8 µM (inactive)
//
compound: Nc1nc(SCc2ccccc2[N+](=O)[O-])c2[nH]cnc2n1
observed: 32.8 µM (inactive)

====

- Tested on: 786-0
- protocol: NCI tumour cell line growth inhibition, 48 h
Active and inactive are the calls of the source. No stated cut-off is given here; in the data, active = GI50 up to about 1.1 µM and inactive = higher.
Labels: active, inactive

compound: Cc1ccc2[nH]c3c4c5ccccc5nc-4c[nH]c3c2c1
label class: inactive
--
compound: O=C1OC(=O)c2c1c(-c1ccccc1)cn2-c1ccc(Cl)cc1
label class: inactive
--
compound: COCC1OC(N2C(=O)NC(=O)[C@@H]3C=C4CCCCC4=C[C@@H]32)C(OC)C1OC (stereo not given in full)
label class: inactive
--
compound: C=COC(=O)N[C@H]1CCc2cc(OC)c(OC)c(OC)c2-c2ccc(SC)c(=O)cc21
label class: active
--
compound: Cc1ccc(S(=O)(=O)N(CC(O)c2ccccc2)c2ccccc2F)cc1 (stereo not given)
label class: inactive

====

- System: A549
- protocol: NCI tumour cell line growth inhibition, 48 h
Activity calls are given as the source filed them. Cut-off read from the data, not from the text of the source: active = GI50 up to about 1.1 µM and inactive = higher.
This listing pairs molecules with measured GI50.

molecule: COC(=O)C1=C(C)NC(C)=C([N+](=O)[O-])C1c1cccc(NO)c1 (stereo not given)
GI50: 3.86 µM (inactive)

molecule: CC(C)N/C(=N\C#N)NS(=O)(=O)c1cnccc1Nc1ccc(Cl)cc1
GI50: > 100 µM (inactive)

molecule: COC(=O)C1=C(C(=O)OC)SC(=C2S[C@@H]3[C@@H]4C[C@H]([C@@H]3S2)[C@H]2C(=O)OC(=O)[C@@H]42)S1
GI50: > 100 µM (inactive)

molecule: COc1cc(OC)c2c(C)cc(=O)oc2c1
GI50: 55.7 µM (inactive)

molecule: O=c1ccc2ccc(OP(=O)(O)O)cc2o1
GI50: > 100 µM (inactive)

molecule: CSC1(SC)N2Cc3ccccc3N=C2C1(c1ccccc1)c1ccccc1
GI50: 13.8 µM (inactive)

molecule: CC(C)N(C(=O)C1(O)c2ccccc2C=Cc2ccccc21)C(C)C
GI50: 19.9 µM (inactive)

molecule: COC1OC2COC1(OC)C1OC(C)(C)OC21 (stereo not given)
GI50: > 100 µM (inactive)

molecule: CC(C)CC(NC(=O)OC(C)(C)C)C(=O)Nc1ccc(Nc2nc(F)nc(-c3c4ccccc4cn3C)n2)cc1 (stereo not given)
GI50: > 100 µM (inactive)

molecule: COc1cc2c(cc1OC)C(=O)N(NC1=NCCN1)C2=O
GI50: > 100 µM (inactive)

====

- Test system: LOX IMVI
- protocol: NCI tumour cell line growth inhibition, 48 h
Activity calls are given as the source filed them. No stated cut-off is given here; in the data, active = GI50 up to about 1.1 µM and inactive = higher.
Labels: active, inactive

compound: COC(=O)C1=Cc2cc(OC)c(OC)cc2[C@H](c2ccc(OC)c(OC)c2)C1C(=O)OC (stereo partly specified)
label class: inactive
//
compound: COc1c(CC(C)O)c2c3c(CC(C)O)c(OC)c(=O)c4c(O)cc5c(c6c(cc(O)c(c1=O)c62)OCO5)c43 (stereo unspecified)
label class: active
//
compound: Cc1ccc(S(=O)(=O)OCCOCCOCCOCCOCCOS(=O)(=O)c2ccc(C)cc2)cc1
label class: inactive
//
compound: CCN1CC2=C(OC(N)=C(C#N)C2c2ccc(Cl)cc2)/C(=C/c2ccc(Cl)cc2)C1 (stereo unspecified)
label class: inactive
//
compound: CC12ON(P(=O)(c3ccccc3)c3ccccc3)C(C)(c3ccccc31)c1ccccc12
label class: inactive
//
compound: NCc1ccc(C(=O)O)cc1
label class: inactive
//
compound: COc1cc2c(cc1OCc1ccccc1)NC(=O)[C@@H]1CCCN1C2=O
label class: inactive
//
compound: COc1cc2c(cc1OC)C(=O)N(NC1=NCCN1)C2=O
label class: inactive
//
compound: O=C(c1nc2ccc([N+](=O)[O-])cc2nc1O)C(O)c1ccc2c(c1)OCO2 (stereo unspecified)
label class: inactive
//
compound: Clc1cccc(/C=c2\nc(-c3ccccc3)n3c2nc2ccccc23)c1
label class: inactive
//
compound: CC1(CO)COS(=O)OC1 (stereo unspecified)
label class: inactive
//
compound: COc1ccc(-c2ncnc(-c3ccc(OC)c(OC)c3)n2)cc1OC
label class: inactive
//
compound: N/N=C(\Cc1ccccc1)NN=C(N)N
label class: inactive
//
compound: Nn1c(S)nnc1COc1cccc(OCc2nnc(S)n2N)c1
label class: inactive
//
compound: CCNC(=S)N/N=C/c1ccccn1
label class: inactive
//
compound: COc1ccc(C2CC(c3c(O)ccc4ccccc34)=NN2c2ccc([N+](=O)[O-])cc2[N+](=O)[O-])cc1OC (stereo unspecified)
label class: inactive
//
compound: Cc1ccc(C2(O)c3ccccc3C(=O)N(C)C2(O)c2ccc(C)cc2)cc1 (stereo unspecified)
label class: inactive
//
compound: COc1cc2ccnc3c2c(c1OC)CC1CC(O)C(OC)CC31 (stereo unspecified)
label class: inactive
//
compound: Cc1cc2ccccc2c[n+]1CC(O)C[n+]1cc2ccccc2cc1C
label class: inactive
//
compound: COc1cc(S(=O)(=O)Nc2ccc(-c3csc(N4C(=O)C(Cl)C4c4ccccc4O)n3)cc2)ccc1Cl (stereo unspecified)
label class: inactive
//
compound: CN(N=O)N1C(=O)SCC(c2ccccc2)(c2ccccc2)C1=O
label class: inactive

====

- Test system: SF-268
- protocol: NCI tumour cell line growth inhibition, 48 h
Active and inactive are the calls of the source. No stated cut-off is given here; in the data, active = GI50 up to about 1.1 µM and inactive = higher.
This listing pairs compounds with measured GI50.
readout type: GI50

compound: CCc1nc2c(n1CC)C(=O)c1ccccc1C2=O
readout type: GI50
observed: 69 µM (inactive)
//
compound: O=C(CCC(NC(=O)OCc1ccccc1)C(=O)OCc1ccccc1)Nc1cccc(OCc2ccccc2)c1 (stereo not given)
readout type: GI50
observed: 28.6 µM (inactive)
//
compound: COc1ccc(/C=C/c2cnc3ccccc3n2)cc1OC
readout type: GI50
observed: > 100 µM (inactive)
//
compound: O=[N+]([O-])C(/C(Cl)=C(/Cl)N1CCOCC1)=C1\NCCO1
readout type: GI50
observed: > 100 µM (inactive)
//
compound: COC(=O)CCC(C)[C@H]1CCC2C3C(C[C@H](OC(C)=O)[C@@]21C)[C@@]1(C)CCC2(C[C@H]1C[C@H]3OC(C)=O)OOC1(CCCC1)OO2 (stereo not given in full)
readout type: GI50
observed: 25.6 µM (inactive)

====

This listing pairs compounds with measured GI50.
- System: SF-268
- protocol: NCI tumour cell line growth inhibition, 48 h
The source made the active and inactive calls. Cut-off read from the data, not from the text of the source: active = GI50 up to about 1.1 µM and inactive = higher.

compound: COc1ccc(C2CC(c3c(O)ccc4ccccc34)=NN2c2ccc([N+](=O)[O-])cc2[N+](=O)[O-])cc1OC (stereo not given)
GI50: 25.4 µM (inactive)
--
compound: COC(=O)C1=CO[C@@H](OC2OC(CO)C(O)C(O)C2O)[C@@H]2[C@H](C)[C@@H](O)[C@@H](O)[C@]12O (stereo not given in full)
GI50: > 100 µM (inactive)
--
compound: CNC(C)Cc1ccccc1O (stereo not given)
GI50: > 100 µM (inactive)
--
compound: COC(=O)C(C(=O)C(=O)Nc1ccc(C)cc1C)c1nc2ccc([N+](=O)[O-])cc2nc1O (stereo not given)
GI50: > 100 µM (inactive)
--
compound: O=c1cc(O)c2ccccc2o1 [4-HYDROXYCOUMARINS]
GI50: > 100 µM (inactive)
--
compound: CC1COS(=O)O1 (stereo not given)
GI50: > 100 µM (inactive)
--
compound: COc1ccc2c(c1)[n+]([O-])c(C(C)=O)c(C)[n+]2[O-]
GI50: > 100 µM (inactive)
--
compound: CCOC(=O)c1cn2c(n1)sc1cc(Cl)cc(Cl)c12
GI50: > 100 µM (inactive)
--
compound: Cc1ccc(/C=C(\NC(=O)c2ccccc2)c2nc3ccccc3[nH]2)cc1
GI50: 60.8 µM (inactive)
--
compound: CN1CCN(C(=O)CCC(=O)Nc2cc3c(c4ccccc24)-c2ccc4ccccc4c2C3)CC1
GI50: 1.8 µM (inactive)
